meta.source: PubChem BioAssay

- system: Calmodulin-1 (Homo sapiens)
- method_notes: CALM1 binders on microarrays, EGTA buffer, profiling panel, biochemical, small-molecule microarray, Cy5-labelled CALM1 (AID 1111);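 note: labelled calmodulin applied in Tris saline Tween buffer holding calcium plus EGTA and DTT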
- stated_conditions: Cy5-CALM1 binding fluorescence, higher = more signal
Recorded composite z-score determines the group label, using LOW: < 0.1; MID: ≥ 0.1 and < 1; HIGH: ≥ 1

>  <molecule>
COC(=O)[C@]1(CCS(=O)(=O)c2ccccc2)N=C(c2ccc(OCCCO)cc2)O[C@@H]1c1ccccc1CN=[N+]=[N-]

>  <system>
Calmodulin-1 (Homo sapiens)

>  <answer_label>
MID

$$$$
>  <molecule>
COC(=O)[C@@]1(Cc2ccccc2)[C@H]2c3cc(C(=O)N4CCCC4)[nH]c3C[C@H]2CN1C(=O)c1ccccc1

>  <system>
Calmodulin-1 (Homo sapiens)

>  <answer_label>
MID

$$$$
>  <molecule>
COC(=O)C(CC#Cc1ccc2c(c1)[C@]1(C(=O)N2)[C@H](C(=O)O)[C@H]2C(=O)O[C@H](c3ccccc3)[C@H](c3ccccc3)N2[C@@H]1c1ccccc1OCCO)C(=O)OC

>  <system>
Calmodulin-1 (Homo sapiens)

>  <answer_label>
HIGH

$$$$
>  <molecule>
C=CC[C@]1(C(=O)N(C)C)N=C(c2ccc(OCCCO)cc2)O[C@H]1c1ccccc1N=[N+]=[N-]

>  <system>
Calmodulin-1 (Homo sapiens)

>  <answer_label>
HIGH

$$$$
>  <molecule>
C=C(CCCC)C(=O)CC[C@@H](OC(=O)c1ccccc1-c1ccccc1C(=O)O)c1cccc(OCCO)c1

>  <system>
Calmodulin-1 (Homo sapiens)

>  <answer_label>
LOW

$$$$
>  <molecule>
CC(C)(C)OC(=O)CC[C@@]1(C(=O)O)N=C(c2ccc(OCCCO)cc2)O[C@@H]1c1ccccc1

>  <system>
Calmodulin-1 (Homo sapiens)

>  <answer_label>
MID

$$$$
>  <molecule>
CC(C)C(O)C1C=CC2C(=O)N(C)C(=O)C2N1N(c1ccccc1)c1ccccc1 (stereo not given)

>  <system>
Calmodulin-1 (Homo sapiens)

>  <answer_label>
MID

$$$$
>  <molecule>
O=C1C[C@@](C(=O)NCC(F)(F)F)(c2ccc([N+](=O)[O-])cc2)[C@@H](c2ccc(CO)cc2)N1C1CCCCC1

>  <system>
Calmodulin-1 (Homo sapiens)

>  <answer_label>
MID

$$$$
>  <molecule>
COC(=O)Cn1c(C(=O)N2CCCC2)cc2c1C[C@H]1CN(C(=O)c3ccccc3)[C@@](Cc3ccc(F)cc3)(C(=O)OC)[C@@H]21

>  <system>
Calmodulin-1 (Homo sapiens)

>  <answer_label>
HIGH

$$$$
>  <molecule>
CCOC(=O)C[C@H]1[C@H](OC(=O)c2ccc(-c3ccccc3)cc2)[C@@H](NC(=O)c2ccc3ccccc3c2)c2cc(OCCCO)ccc2N1C(=O)c1ccc2ccccc2n1

>  <system>
Calmodulin-1 (Homo sapiens)

>  <answer_label>
HIGH

$$$$
>  <molecule>
O=C1c2ccccc2[C@](Cc2ccccc2I)(C(=O)NCc2ccccc2)[C@H](c2ccc(CO)cc2)N1C1CCCCC1

>  <system>
Calmodulin-1 (Homo sapiens)

>  <answer_label>
HIGH

$$$$
>  <molecule>
[N-]=[N+]=Nc1ccccc1[C@@H]1OC(c2ccc(OCCCO)cc2)=N[C@]1(CCS(=O)(=O)c1ccccc1)C(=O)NCCN1CCOCC1

>  <system>
Calmodulin-1 (Homo sapiens)

>  <answer_label>
LOW

$$$$
>  <molecule>
C[C@]1(C(=O)NCCN2CCOCC2)c2ccccc2C(=O)N(Cc2ccc(OC(F)(F)F)cc2)[C@H]1c1ccc(CO)cc1

>  <system>
Calmodulin-1 (Homo sapiens)

>  <answer_label>
LOW

$$$$
>  <molecule>
COc1ccccc1CN1C(=O)c2ccccc2[C@](Cc2ccccc2I)(C(=O)NC(C)C)[C@@H]1c1ccc(CO)cc1

>  <system>
Calmodulin-1 (Homo sapiens)

>  <answer_label>
MID

$$$$
>  <molecule>
C=C[C@@H](COC(C)=O)NS(=O)(=O)c1ccc(Br)cc1

>  <system>
Calmodulin-1 (Homo sapiens)

>  <answer_label>
LOW

$$$$
